- measured_on: recombinant cGAS (aa147-522) (Homo sapiens, UniProt Q8N884)
- Construct: recombinant cGAS (aa147-522); His6-SUMO (N, cleaved yes)
- Sequence (Q8N884 147-522): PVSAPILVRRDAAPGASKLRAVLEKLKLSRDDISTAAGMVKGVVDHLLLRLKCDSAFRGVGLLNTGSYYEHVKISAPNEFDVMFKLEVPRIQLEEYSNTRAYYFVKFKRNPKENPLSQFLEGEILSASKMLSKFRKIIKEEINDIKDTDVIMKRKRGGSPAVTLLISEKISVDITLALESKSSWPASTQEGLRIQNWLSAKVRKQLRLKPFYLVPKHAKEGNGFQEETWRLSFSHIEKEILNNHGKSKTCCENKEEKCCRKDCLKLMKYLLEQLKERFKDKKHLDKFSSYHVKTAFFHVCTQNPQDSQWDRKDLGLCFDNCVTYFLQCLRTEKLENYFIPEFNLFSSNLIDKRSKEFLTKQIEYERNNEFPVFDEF
- test_protocol: In vitro assay for inhibition of cGAS activity (ATP consumption, Kinase Glo)
- condition_parameters: 37° C. 20 minutes, read-out: Activity (Inhibition of cGAS enzyme activity in vitro, IC50)
result_type: IC50

[[record]]
molecule = "CC(C)CNc1cncc(COc2cc(/C=C3\\SC(=O)N(C)C3=O)c(Br)cc2O)c1"
result_type = "IC50"
test_result = "≥ 10000 nM"

[[record]]
molecule = "CN1C(=O)S/C(=C\\c2cc3oc(=O)[nH]c3cc2Br)C1=O"
result_type = "IC50"
test_result = "500 to 10000 nM"

[[record]]
molecule = "CN1C(=O)S/C(=C\\c2cc(OCC3CCN(C(=O)c4ccccn4)CC3)c(O)cc2Br)C1=O"
result_type = "IC50"
test_result = "500 to 10000 nM"

[[record]]
molecule = "CN1C(=O)S/C(=C\\c2cc(OCc3cnc(NCc4ccncc4)nc3)c(O)cc2Br)C1=O"
result_type = "IC50"
test_result = "≤ 500 nM"

[[record]]
molecule = "[2H]C([2H])(Oc1cc(/C=C2\\SC(=O)N(C)C2=O)c(Br)cc1O)c1cnc(N)nc1"
result_type = "IC50"
test_result = "≤ 500 nM"

[[record]]
molecule = "O=C1NC(=O)/C(=C/c2cnccn2)S1"
result_type = "IC50"
test_result = "≥ 10000 nM"

[[record]]
molecule = "CN1C(=O)S/C(=C\\c2cc(OCc3cnc(-c4ccccn4)nc3)c(O)cc2Br)C1=O"
result_type = "IC50"
test_result = "500 to 10000 nM"

[[record]]
molecule = "Cc1nc(N)ncc1COc1cc(/C=C2\\SC(=O)N(C)C2=O)c(Br)cc1O"
result_type = "IC50"
test_result = "≤ 500 nM"


As a next step, examine the compound that follows.
Task: Suppose we examine the compound "Cc1ncc(COc2cc(/C=C3\Sc4ncccc4C3=O)c(Br)cc2O)c(C)n1" ; what IC50 value has been reported?
Result: ≤ 500 nM

---

- measured_on: recombinant cGAS (aa147-522) (Homo sapiens, UniProt Q8N884)
- Construct: recombinant cGAS (aa147-522); His6-SUMO (N, cleaved yes)
- test_protocol: In vitro assay for inhibition of cGAS activity (ATP consumption, Kinase Glo)
- condition_parameters: 37° C. 20 minutes, read-out: Activity (Inhibition of cGAS enzyme activity in vitro, IC50)
result_type: IC50

[[record]]
molecule = "COc1cc(/C=C2\\SC(=O)N(C)C2=O)c(Br)cc1-c1nn[nH]n1 [Ex35]"
test_result = "500 to 10000 nM"


Task: Suppose we examine the molecule Cc1cnccc1/C=C1\SC(=O)NC1=O [Ex3] ; what IC50 value has been reported?
Result: ≤ 500 nM

Task: Suppose we examine the molecule Cc1ncc(COc2cc(/C=C3\Sc4ncccc4C3=O)c(Br)cc2O)cn1 [Ex114] ; what IC50 value has been reported?
Result: ≤ 500 nM

Task: Suppose we examine the molecule COc1cc(/C=C2\SC(=O)N(C)C2=O)c(C)cc1O [Ex64] ; what IC50 value has been reported?
Result: 500 to 10000 nM

Task: Suppose we examine the molecule CN1C(=O)S/C(=C\c2cc(OCC(=O)Nc3nncs3)c(O)c(F)c2Br)C1=O [ExB1] ; what IC50 value has been reported?
Result: 500 to 10000 nM

Task: Suppose we examine the molecule C[S+]([O-])c1ncc(COc2cc(/C=C3\Sc4ncccc4C3=O)c(Br)cc2O)cn1 (stereo not shown) [Ex216] ; what IC50 value has been reported?
Result: ≤ 500 nM

---

molecules and their reported pIC50
- measured_on: recombinant cGAS (aa147-522) (Homo sapiens, UniProt Q8N884)
- Construct: recombinant cGAS (aa147-522); His6-SUMO (N, cleaved yes)
- test_protocol: In vitro assay for inhibition of cGAS activity (ATP consumption, Kinase Glo)
- condition_parameters: 37° C. 20 minutes, read-out: Activity (Inhibition of cGAS enzyme activity in vitro, IC50)
pIC50: −log10 of the molar value.

[[record]]
molecule = "CN1C(=O)S/C(=C\\c2cc3c(Cc4cnc(N)nc4)c[nH]c3cc2Br)C1=O [Ex208]"
test_result = "5.00 to 6.30"

[[record]]
molecule = "[2H]C(C)(Oc1cc(/C=C2\\SC(=O)N(C)C2=O)c(Br)c(F)c1O)c1cnc(N)nc1 (stereo not drawn) [ExB29]"
test_result = "≥ 6.30"

[[record]]
molecule = "CC/N=C1/S/C(=C\\c2cc(OC)c(O)cc2Br)C(=O)N1C [ExB23]"
test_result = "≤ 5.00"

[[record]]
molecule = "CN1C(=O)S/C(=C\\c2cc(Oc3ccc(-c4ccccn4)cc3)c(O)cc2Br)C1=O [ExB26]"
test_result = "≤ 5.00"

[[record]]
molecule = "COc1cc(/C=C2\\SC(=O)N(C)C2=O)c(Br)c(Cl)c1O [Ex34]"
test_result = "5.00 to 6.30"

[[record]]
molecule = "O=C1NC(=O)/C(=C/c2ccncc2)S1 [Ex1]"
test_result = "≥ 6.30"


Task: Suppose we examine the molecule CN1C(=O)S/C(=C\c2cc(O)c(O)cc2Br)C1=O [Ex11] ; what pIC50 value has been reported?
Result: ≤ 5.00

Task: Suppose we examine the molecule CC(Oc1cc(/C=C2\SC(=O)N(C)C2=O)c(Br)cc1O)c1cnc(N)nc1 (stereo not drawn) [Ex84] ; what pIC50 value has been reported?
Result: ≥ 6.30

Task: Suppose we examine the molecule O=C1/C(=C/c2cc(OCc3cncnc3)c(O)cc2Br)Sc2ncccc21 [Ex193] ; what pIC50 value has been reported?
Result: ≥ 6.30

---

- System: cGAS activity in THP1 cells
- test_protocol: Cellular assay: ISRE-Gaussia luciferase reporter THP1 cells transfected with ISD (Interferon Stimulatory DNA)
- Format: cell-based
- condition_parameters: Homo sapiens, THP-1; ISRE-Gaussia luciferase reporter THP1 cells transfected with 2 μg/mL ISD, 16 hours; read-out: THP1-ISD (Inhibition of cGAS activity in THP1 cells, IC50)
pIC50: −log10 of the molar value.
molecules and their reported pIC50

[[record]]
molecule = "CN1C(=O)S/C(=C\\c2cc(OCCc3cnc(N)nc3)c(O)cc2Br)C1=O [Ex82]"
test_result = "≥ 5.60"

[[record]]
molecule = "Nc1ncc(COc2cc(/C=c3\\sc4nccn4c3=O)c(Br)cc2O)cn1 [ExA11]"
test_result = "≥ 5.60"

[[record]]
molecule = "CC(C)n1ccc(COc2cc(/C=C3\\SC(=O)N(C)C3=O)c(Br)cc2O)cc1=O [Ex135]"
test_result = "5.00 to 5.60"

[[record]]
molecule = "CN1C(=O)S/C(=C\\c2cc(OCc3ccncc3)c(O)cc2Br)C1=O [Ex53]"
test_result = "≥ 5.60"


Task: Suppose we examine the molecule COCCNc1ncc(COc2cc(/C=C3\Sc4ncccc4C3=O)c(Br)cc2O)cn1 [Ex197] ; what pIC50 value has been reported?
Result: 5.00 to 5.60

Task: Suppose we examine the molecule [2H]C([2H])(Oc1cc(/C=C2\SC(=O)N(C)C2=O)c(Br)cc1O)c1cnc(N)nc1 [ExB35] ; what pIC50 value has been reported?
Result: ≥ 5.60

Task: Suppose we examine the molecule CNc1ncc(COc2cc(/C=C3\SC(=O)N(C)C3=O)c(Br)cc2O)cn1 [Ex148] ; what pIC50 value has been reported?
Result: ≥ 5.60

Task: Suppose we examine the molecule CN1C(=O)S/C(=C\c2cc(OCc3cnc(Cl)nc3)c(O)c(F)c2Br)C1=O [Ex107] ; what pIC50 value has been reported?
Result: 5.00 to 5.60

Task: Suppose we examine the molecule CN1C(=O)S/C(=C\c2cc(OCc3cncnc3)c(O)cc2Br)C1=O [Ex140] ; what pIC50 value has been reported?
Result: ≥ 5.60

Task: Suppose we examine the molecule CN1C(=O)S/C(=C\c2cc(OCc3cnc(N)nc3)c(Oc3cnc(N)s3)cc2Br)C1=O [Ex211] ; what pIC50 value has been reported?
Result: 5.00 to 5.60

Task: Suppose we examine the molecule Nc1ncc(COc2cc(/C=C3\Sc4ncccc4C3=O)c(Br)cc2O)c(C2CC2)n1 [Ex117] ; what pIC50 value has been reported?
Result: 5.00 to 5.60

Task: Suppose we examine the molecule COc1cc(/C=C2\SC(=O)N(C)C2=O)c(Cl)cc1O [Ex30] ; what pIC50 value has been reported?
Result: ≥ 5.60

Task: Suppose we examine the molecule CN1C(=O)S/C(=C\c2cc(OCc3cn(-c4ccncc4)nn3)c(O)cc2Br)C1=O [Ex233] ; what pIC50 value has been reported?
Result: 5.00 to 5.60

Task: Suppose we examine the molecule CC(Oc1cc(/C=C2\Sc3ncccc3C2=O)c(Br)cc1O)c1cnc(NCCO)nc1 (stereo not drawn) [ExA9] ; what pIC50 value has been reported?
Result: 5.00 to 5.60

Task: Suppose we examine the molecule CC(Oc1cc(/C=C2\SC(=O)N(C)C2=O)c(Br)c(F)c1O)c1cnc(N)nc1C(F)(F)F (stereo not drawn) [ExA7] ; what pIC50 value has been reported?
Result: 5.00 to 5.60

Each recorded value in this set is attributed to patent US12065416B2.
